Documented % Inhibition of Control Specific Binding @ 10 μM across a set of compounds
Test system: Neuropeptide Y (ns)
Experiment: Binding Y (ns) (ag)
Parameters: species or system rat
Respond with the bare value in %.

>>> numeric_result("CC1(C)C(=O)N(c2ccc(C#N)c(C(F)(F)F)c2)C(=S)N1c1ccc(C(=O)O)c(F)c1 [(MI)]")
"−6"
>>> numeric_result("CNC(=O)c1ccc(N2C(=O)N(c3ccc(C#N)c(C(F)(F)F)c3)C(=O)C2(C)C)cc1F [(MIV)]")
"−2"
>>> numeric_result("CC1(C)C(=O)N(c2ccc(C#N)c(C(F)(F)F)c2)C(=O)N1c1ccc(C(N)=O)c(F)c1 [(MIII)]")
"−2"

Now for another entry.
Any idea what % Inhibition of Control Specific Binding @ 10 μM was measured for CC1(C)C(=O)N(c2ccc(C#N)c(C(F)(F)F)c2)C(=S)N1c1ccc(C(N)=O)c(F)c1 [(MII)] ?
−6
